test system: TAOK1; conditions: concentration: 1 μM,replicates: in singlicate; n = 1;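 further: KINOMEscan kinase panel screen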
METRIC NAME: %Inh (%)
Expressed in %, but write only the number.

Completed entries (count: 5):
Cc1occc1-c1nc(N)c(OC[C@@H](N)Cc2c[nH]c3ccccc23)cc1-c1cc2c(C)n[nH]c2cn1 [GSK1660450] : 99.6
Cc1ccc2c(-c3ccncc3)c(-c3ccc(F)cc3)nn2c1.Cl [GW461484] : 0
Cc1cc2cn[nH]c2cc1-c1cccc2c(N)c(C(N)=O)nnc12 : 83
Cc1ccc(-n2nc(C(C)(C)C)cc2NC(=O)Nc2ccc(OCCN3CCOCC3)c3ccccc23)cc1 [GW839464] : 0
Cl.Oc1cc(-c2nc(-c3ccccc3)[nH]c2-c2ccncc2)ccc1Cl [SB-386023] : 11

Item Cl.Cl.Nc1nc(-c2ccc3c(N)n[nH]c3c2)cc(N2CCCC(NC(=O)c3ccccc3)C2)n1 (stereo not drawn) [GSK2286775] has what recorded %Inh?
0

Item "Cc1cc(C(=O)Nc2ccc(Oc3ccc4nc(NC(=O)C5CC5)cn4n3)cc2)nn1-c1ccccc1" has what recorded %Inh?
0

Item CN(C)CCOc1ccc(-c2cc(-c3c[nH]nc3-c3ccccn3)ccn2)cc1 [GW835314] has what recorded %Inh?
23

Item CC(C)Nc1cc(-c2ccc3c(N)n[nH]c3c2)nc(N)n1 [GSK2221681] has what recorded %Inh?
4

Item Cl.Cl.NC[C@H](Cc1ccc(C(F)(F)F)cc1)NC(=O)c1cc(Br)c(-c2ccnc3[nH]ccc23)s1 [GSK1487252] has what recorded %Inh?
2

Item Nc1nc(Nc2ccccc2)cc(-c2ccc3c(N)n[nH]c3c2)n1 [GSK2225749] has what recorded %Inh?
32

Item "C[C@@H](Oc1cc(-c2cnn(C3CCNCC3)c2)cnc1N)c1c(Cl)ccc(F)c1Cl" has what recorded %Inh?
31

Item NC(=O)c1cc(-c2ccccc2)cc2c(C3CCNCC3)c[nH]c12 [GSK301362] has what recorded %Inh?
95.8

Item "CC(C)N1C(=O)Cc2cc(Nc3ncc(C(F)(F)F)c(NCc4cccc(S(C)(=O)=O)c4)n3)ccc21" has what recorded %Inh?
0

Item COc1ccc(C[C@@H](CN)NC(=O)c2cc(Br)c(-c3ccnc4[nH]ccc34)s2)cc1.Cl.Cl [GSK1389063] has what recorded %Inh?
87

====

system: PIM2; conditions: concentration: 1 μM,replicates: in singlicate; n = 1
Below, each entry is listed alongside its reported %Inh.
Expressed in %, but write only the number.

NC(=O)c1cc(-c2ccccc2)cc2c(C3CCNCC3)c[nH]c12 [GSK301362] : 0
Cc1ccc(-n2nc(C(C)(C)C)cc2NC(=O)Nc2ccc(OCCN3CCOCC3)c3ccccc23)cc1 [GW839464] : 9

Item "CCN(CC)CCCCNc1ncc2cc(-c3c(Cl)cccc3Cl)c(NC(=O)NC(C)(C)C)nc2n1" has what recorded %Inh?
13

Item Cc1n[nH]c2ccc(-c3cc(OC[C@@H](N)Cc4ccccc4)cnc3-c3ccoc3)cc12.O=C(O)C(F)(F)F.O=C(O)C(F)(F)F [GSK507358] has what recorded %Inh?
90

====

test system: p38-alpha; construct: gene MAPK14; conditions: concentration: 1 μM,replicates: in singlicate; n = 1
METRIC NAME: %Inh
Answer as a quantity: numeral, then unit.

Completed entries (count: 2):
Cl.Cl.NC[C@H](CC1CCCCC1)NC(=O)c1cc(Br)c(-c2ccnc3[nH]ccc23)s1 : 0%
C[C@@H](Oc1cc(-c2cnn(C3CCNCC3)c2)cnc1N)c1c(Cl)ccc(F)c1Cl : 2%

Item "O=C(NCCNc1ccnc(NCc2ccc(F)cc2)n1)c1cc2ccccc2s1" has what recorded %Inh?
77%

Item "CNC(=O)c1ccccc1Sc1ccc2c(/C=C/c3ccccn3)n[nH]c2c1" has what recorded %Inh?
5%

====

tested on: DAPK2; settings: concentration: 1 μM,replicates: in singlicate; n = 1
METRIC NAME: %Inh (%)
Expressed in %, but write only the number.

Completed entries (count: 3):
CCN(CC)CCOc1ccc(Nc2ncc3cc(-c4c(Cl)cccc4Cl)c(=O)n(C)c3n2)cc1 : 0
Cc1occc1-c1nc(N)c(OC[C@@H](N)Cc2c[nH]c3ccccc23)cc1-c1cc2c(C)n[nH]c2cn1 : 69
Cl.Oc1cc(-c2nc(-c3ccccc3)[nH]c2-c2ccncc2)ccc1Cl : 0

Please state recorded %Inh (tested on DAPK2) of "CN(C)CCOc1ccc(-c2cc(-c3c[nH]nc3-c3ccccn3)ccn2)cc1"
0

Please state recorded %Inh (tested on DAPK2) of "C[C@@H](Oc1cc(-c2cnn(C3CCNCC3)c2)cnc1N)c1c(Cl)ccc(F)c1Cl"
1

====

test system: PRKCI; details: concentration: 1 μM,replicates: in singlicate; n = 1
The label depends only on %Inh: fulfilled if it is at least 20%, not fulfilled if it is smaller.

COc1ccc(C[C@@H](CN)NC(=O)c2cc(Br)c(-c3ccnc4[nH]ccc34)s2)cc1.Cl.Cl [GSK1389063] : fulfilled
O=C(NCCNc1ccnc(NCc2ccc(F)cc2)n1)c1cc2ccccc2s1 [GSK1379944] : not fulfilled
CNC(=O)c1ccccc1Sc1ccc2c(/C=C/c3ccccn3)n[nH]c2c1 : not fulfilled
C[C@@H]1CCN(C(=O)CC#N)C[C@@H]1N(C)c1ncnc2[nH]ccc12 : not fulfilled
Cc1cc2cn[nH]c2cc1-c1cccc2c(N)c(C(N)=O)nnc12 : fulfilled

Now turn to the next compound.
Hi, just wondering whether Cl.Cl.NC[C@H](Cc1ccc(C(F)(F)F)cc1)NC(=O)c1cc(Br)c(-c2ccnc3[nH]ccc23)s1 [GSK1487252] shows %Inh of 20% or higher.
not fulfilled

====

Below, each entry is listed alongside its reported %Inh.
system: PRKCQ; details: concentration: 1 μM,replicates: in singlicate; n = 1
Expressed in %, but write only the number.

Completed entries (count: 5):
Cc1cc2cn[nH]c2cc1-c1cccc2c(N)c(C(N)=O)nnc12 : 21
CCN(CC)CCCCNc1ncc2cc(-c3c(Cl)cccc3Cl)c(NC(=O)NC(C)(C)C)nc2n1 : 0
CC(C)N1C(=O)Cc2cc(Nc3ncc(C(F)(F)F)c(NCc4cccc(S(C)(=O)=O)c4)n3)ccc21 : 9
CCn1c(-c2nonc2N)nc2c(C#CC(C)(C)O)nc(OCCN)cc21.Cl.Cl [GSK902056] : 89
Cc1ccc(-n2nc(C(C)(C)C)cc2NC(=O)Nc2ccc(OCCN3CCOCC3)c3ccccc23)cc1 [GW839464] : 0

Item Cl.Oc1cc(-c2nc(-c3ccccc3)[nH]c2-c2ccncc2)ccc1Cl [SB-386023] has what recorded %Inh?
8

Item O=C(NCCNc1ccnc(NCc2ccc(F)cc2)n1)c1cc2ccccc2s1 [GSK1379944] has what recorded %Inh?
39

Item Cc1ccc2c(-c3ccncc3)c(-c3ccc(F)cc3)nn2c1.Cl [GW461484] has what recorded %Inh?
21

Item "C[C@@H]1CCN(C(=O)CC#N)C[C@@H]1N(C)c1ncnc2[nH]ccc12" has what recorded %Inh?
0

Item Cc1n[nH]c2ccc(-c3cc(OC[C@@H](N)Cc4ccccc4)cnc3-c3ccoc3)cc12.O=C(O)C(F)(F)F.O=C(O)C(F)(F)F [GSK507358] has what recorded %Inh?
95.4

Item Cl.Cl.Nc1nc(-c2ccc3c(N)n[nH]c3c2)cc(N2CCCC(NC(=O)c3ccccc3)C2)n1 (stereo not shown) [GSK2286775] has what recorded %Inh?
18

Item Cl.Cl.NC[C@H](Cc1ccc(C(F)(F)F)cc1)NC(=O)c1cc(Br)c(-c2ccnc3[nH]ccc23)s1 [GSK1487252] has what recorded %Inh?
88

====

system: MAP3K15; settings: concentration: 1 μM,replicates: in singlicate; n = 1
Below, each entry is listed alongside its reported %Inh.
Expressed in %, but write only the number.

Completed entries (count: 2):
CC(C)Nc1cc(-c2ccc3c(N)n[nH]c3c2)nc(N)n1 [GSK2221681] : 0
Cc1cc2cn[nH]c2cc1-c1cccc2c(N)c(C(N)=O)nnc12 : 82

Item "Cc1cc(C(=O)Nc2ccc(Oc3ccc4nc(NC(=O)C5CC5)cn4n3)cc2)nn1-c1ccccc1" has what recorded %Inh?
0

Item Cl.Cl.NC[C@H](CC1CCCCC1)NC(=O)c1cc(Br)c(-c2ccnc3[nH]ccc23)s1 [GSK1581427] has what recorded %Inh?
88

Item "C[C@@H](Oc1cc(-c2cnn(C3CCNCC3)c2)cnc1N)c1c(Cl)ccc(F)c1Cl" has what recorded %Inh?
28

====

system: IGF1R; conditions: concentration: 1 μM,replicates: in singlicate; n = 1
Below, each entry is listed alongside its reported %Inh.
Answer as a quantity: numeral, then unit.

Completed entries (count: 4):
Cc1occc1-c1nc(N)c(OC[C@@H](N)Cc2c[nH]c3ccccc23)cc1-c1cc2c(C)n[nH]c2cn1 : 0%
O=C(NCCCN1CCOC1=O)c1cnc(NCc2cc(Cl)ccc2Cl)nc1NC1CCCC1 : 0%
CNC(=O)c1ccccc1Sc1ccc2c(/C=C/c3ccccn3)n[nH]c2c1 : 4%
Cl.Cl.NC[C@H](CC1CCCCC1)NC(=O)c1cc(Br)c(-c2ccnc3[nH]ccc23)s1 : 0%

Item "O=C(NCCNc1ccnc(NCc2ccc(F)cc2)n1)c1cc2ccccc2s1" has what recorded %Inh?
70%
